Target: ScBem1-D1
Test: SPOT peptide array binding signal intensity (averaged, normalized) (arbitrary units (background-subtracted, floor 0; scale differs between SH3 domains)); higher = stronger binding of the SH3 domain to the peptide
Please respond with reported SPOT peptide array binding signal intensity for every item in the list.
Answers are plain numbers.

The following binders have reported results that may help.
FYHRPAPKPPVTKKV: 4
RRSKSLPITPKSIFN: 88

Please go through the list and note SPOT peptide array binding signal intensity for each binder.
1. KRKRRLPVSEDTNTK
2. TPRLSLPRLPNKHHW

[out]
183
2

Origin of the recorded values: the supplement of paper PMC4466140
